System: PXR homodimer (NR concentration 270 nM)
Assay: PBM binding z-score (relative to random genomic background probes); higher = stronger binding; sequences stand for … in GC…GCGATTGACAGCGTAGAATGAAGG
Could you please classify the records by PBM binding z-score using these ranges: lo (below -0.3), mid (-0.3 to below 0.9), hi (0.9 or more)

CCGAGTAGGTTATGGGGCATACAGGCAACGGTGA ... mid
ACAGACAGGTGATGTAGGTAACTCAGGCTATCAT ... mid

Q: Tag the class for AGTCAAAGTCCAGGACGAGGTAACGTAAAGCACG
A: lo

Q: Tag the class for ACTATTAGTTGAGACGAGGGCGACCGATAGGTTG
A: mid

Q: Tag the class for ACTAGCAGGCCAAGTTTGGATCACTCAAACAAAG
A: lo

Q: Tag the class for TCTTTTAGTTGATTAGGGCAACCGAAACAGCGGA
A: hi

Q: Tag the class for CCTGCTAGGTCAATCGTCAGCTAAAGCAGCTCGC
A: lo

====

Tested on: PPARg:RXRa 270nM:90nM, anti-RXR (NR concentration 270 nM, RXRa partner concentration 90 nM)
Test: PBM binding z-score (relative to random genomic background probes); higher = stronger binding; sequences stand for … in GC…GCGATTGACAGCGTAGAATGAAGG
Listing of entries alongside the reported PBM binding z-score.
Respond numerically, and do not add a unit to the figure.

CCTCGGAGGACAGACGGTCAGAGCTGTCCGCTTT ... -1.01
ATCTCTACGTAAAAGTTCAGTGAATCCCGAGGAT ... 1.55
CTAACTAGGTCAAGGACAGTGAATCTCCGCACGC ... 6.92
GCTATTAGTTGAAAGGGCTACCGAATGATTCTCG ... 1.52
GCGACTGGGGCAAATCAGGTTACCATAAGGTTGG ... 1.07

Q: Please report PBM binding z-score for the following sequence: TCATATAGTTAATACAGGTGAAAGTCGGCATCTA
A: 2.41

Q: Please report PBM binding z-score for the following sequence: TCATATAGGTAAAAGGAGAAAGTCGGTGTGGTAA
A: 4.79

Q: Please report PBM binding z-score for the following sequence: CGTCCAAGGTCGGCAGGTCAGTGAAAGCGACGTG
A: 0.764

Q: Please report PBM binding z-score for the following sequence: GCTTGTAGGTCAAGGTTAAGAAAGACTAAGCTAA
A: 7.63

Q: Please report PBM binding z-score for the following sequence: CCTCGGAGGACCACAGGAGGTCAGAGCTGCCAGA
A: 0.0668

Q: Please report PBM binding z-score for the following sequence: GCTTACGGGTAAAAGGTTATAGCATGAATAGAAT
A: 7.67

Q: Please report PBM binding z-score for the following sequence: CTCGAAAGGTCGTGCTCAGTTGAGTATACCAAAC
A: 3.47

Q: Please report PBM binding z-score for the following sequence: CCTCGGAGGACATAAGGTCAGAGCTGTCCGCTTT
A: 0.85

Q: Please report PBM binding z-score for the following sequence: CCGACTGGGGCATAAGGTTACCATGAGCCAGCCC
A: 3.24

====

Test system: LXRb homodimer (NR concentration 270 nM)
Assay: PBM binding z-score (relative to random genomic background probes); higher = stronger binding; sequences stand for … in GC…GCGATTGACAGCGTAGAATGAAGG
Criterion: PBM binding z-score meeting or surpassing 0.4. Met: Met. Not met: Not met.

Below are worked cases with known answers.
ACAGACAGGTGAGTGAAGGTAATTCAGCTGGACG ... Not met
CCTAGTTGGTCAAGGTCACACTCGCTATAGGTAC ... Met
CCTCGGAGGACAACAGGAGGGCAGAGCTGCCAGA ... Not met
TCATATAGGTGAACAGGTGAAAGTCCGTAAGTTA ... Not met
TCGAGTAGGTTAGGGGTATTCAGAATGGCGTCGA ... Not met
CGTCAAAGTTCAACTAAGGTAACGTTAAGCACGC ... Met

Q: Is the recorded value of PBM binding z-score equal to or greater than 0.4 for this sequence? GGAACGAGGGCAAAGTAGATAGCATCTGTCGACG
A: Not met

Q: Is the recorded value of PBM binding z-score equal to or greater than 0.4 for this sequence? CGTCCAAGGACAGCAGGTCAGTGAAAGCGACGTG
A: Not met
